experiment: Hepatocyte stability, cynomolgus monkey; format: in vitro ADME; conditions: cynomolgus monkey hepatocytes, 0.5 million cells/ml
Counter-ions that a name gives are not always drawn.
Recorded half-life at 2 μM for the following molecules
Dear colleague, please return just the value in h, with no unit written.

Below, 3 molecules whose answers are already recorded.
| Molecule | Quantity Unit | half-life at 2 μM |
| --- | --- | --- |
| CNS(=O)(=O)Nc1cccc(Cc2c(CN3CCNCC3)c3ccc(OC(=O)N(C)C)cc3oc2=O)c1Cl [Compound 246, hydrochloride] | h | 6.75 |
| CNS(=O)(=O)Nc1cccc(Cc2c(CN3CCNCC3)c3cc(Cl)c(OC(=O)N(C)C)cc3oc2=O)c1Cl [Compound 256, hydrochloride] | h | 2.25 |
| CCS(=O)(=O)Nc1cccc(Cc2c(CN3CCNCC3)c3cc(Cl)c(OC(=O)N(C)C)cc3oc2=O)c1Cl [Compound 257, hydrochloride] | h | 2.98 |

Name the recorded half-life at 2 μM for CCN(C)Cc1c(Cc2cccc(NS(=O)(=O)NC)c2F)c(=O)oc2cc(OC(=O)N(C)C)c(F)cc12 .
0.953

Recorded half-life at 2 μM of CCN(C)Cc1c(Cc2cccc(NS(=O)(=O)NC)c2Cl)c(=O)oc2cc(OC(=O)N(C)C)ccc12 , please.
0.407

Which half-life at 2 μM value is on record for CNS(=O)(=O)Nc1cccc(Cc2c(CN(C)C)c3ccc(OC(=O)N(C)C)cc3oc2=O)c1Cl ?
0.985
